- System: Male SD (Sprague-Dawley) rats
- runDescription: APAP-induced hepatotoxicity in rats: histological liver tissue sections (Total HAI-score)
- conditionParameters: excipient 1.67 mg/kg + APAP 1000 mg/kg, single oral dose
Listing of entries alongside the reported Total HAI-score.
Please give the numeric answer without any surrounding text.

Some compounds with recorded Total HAI-score:
# value lookup — system Male SD (Sprague-Dawley) rats, readout Total HAI-score, item OC[C@H]1O[C@H](O[C@]2(CCl)O[C@H](CCl)[C@@H](O)[C@@H]2O)[C@H](O)[C@@H](O)[C@H]1Cl 0.6

Any idea what Total HAI-score came out for OC[C@@H](O)[C@@H](O)[C@H](O)[C@H](O)CO on Male SD (Sprague-Dawley) rats? 0.8

Find Total HAI-score (Male SD (Sprague-Dawley) rats) for the entry CC1CCC(C(C)C)C(O)C1 (stereo not shown) 11

---
Enter reported Total HAI-score observed with Male SD (Sprague-Dawley) rats for O.O.O=P([O-])([O-])O.[Ca+2] [Dicalcium phosphate dihydrate] 3.1

###

- targetSystem: Cytochrome P450 2E1 (CYP2E1) (Homo sapiens)
- Sequence (P05181 whole entry): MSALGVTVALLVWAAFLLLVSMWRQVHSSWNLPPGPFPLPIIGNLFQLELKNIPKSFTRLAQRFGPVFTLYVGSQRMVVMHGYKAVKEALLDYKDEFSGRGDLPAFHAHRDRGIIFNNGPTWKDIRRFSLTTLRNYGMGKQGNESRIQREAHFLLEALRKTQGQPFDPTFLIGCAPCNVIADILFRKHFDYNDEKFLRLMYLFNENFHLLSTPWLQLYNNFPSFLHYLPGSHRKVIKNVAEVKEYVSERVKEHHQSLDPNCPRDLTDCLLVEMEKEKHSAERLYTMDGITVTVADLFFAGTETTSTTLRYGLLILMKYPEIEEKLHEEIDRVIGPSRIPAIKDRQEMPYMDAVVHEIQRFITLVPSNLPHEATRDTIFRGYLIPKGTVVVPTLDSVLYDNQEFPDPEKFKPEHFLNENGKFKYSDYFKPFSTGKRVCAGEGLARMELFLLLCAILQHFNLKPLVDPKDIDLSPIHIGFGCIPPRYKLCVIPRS
- runDescription: In-vitro screening of CYP2E1 inhibitors in human liver microsomes (chlorzoxazone 6-hydroxylation)
- conditionParameters: human liver microsomes, test concentration 33 μM
Given measured CYP 2E1 inhibition ratio, output Condition met if it is greater than or equal to 20% and Condition not met if not.

Say whether O=C(O)CC(O)(CC(=O)O)C(=O)O shows CYP 2E1 inhibition ratio of 20% or more. Condition not met

Exam item: decide whether the reported CYP 2E1 inhibition ratio for C/C=C/C=C/C(=O)O is at least 20%. Condition not met

Check this molecule for CYP 2E1 inhibition ratio at or above 20%: O=C1NS(=O)(=O)c2ccccc21 Condition met

Please check the record CC1CCC(C(C)C)C(O)C1 (centres unmarked) and state if its CYP 2E1 inhibition ratio is at or above 20%. Condition met

Please find the next molecule below.
Does the molecule O.O.O=P([O-])([O-])O.[Ca+2] [Dicalcium phosphate dihydrate] have recorded CYP 2E1 inhibition ratio that is 20% or more? Condition met

###

Listing: CYP 2E1 inhibition ratio of selected molecules
- targetSystem: Cytochrome P450 2E1 (CYP2E1) (Rattus norvegicus, UniProt P05182)
- Sequence (P05182 whole entry): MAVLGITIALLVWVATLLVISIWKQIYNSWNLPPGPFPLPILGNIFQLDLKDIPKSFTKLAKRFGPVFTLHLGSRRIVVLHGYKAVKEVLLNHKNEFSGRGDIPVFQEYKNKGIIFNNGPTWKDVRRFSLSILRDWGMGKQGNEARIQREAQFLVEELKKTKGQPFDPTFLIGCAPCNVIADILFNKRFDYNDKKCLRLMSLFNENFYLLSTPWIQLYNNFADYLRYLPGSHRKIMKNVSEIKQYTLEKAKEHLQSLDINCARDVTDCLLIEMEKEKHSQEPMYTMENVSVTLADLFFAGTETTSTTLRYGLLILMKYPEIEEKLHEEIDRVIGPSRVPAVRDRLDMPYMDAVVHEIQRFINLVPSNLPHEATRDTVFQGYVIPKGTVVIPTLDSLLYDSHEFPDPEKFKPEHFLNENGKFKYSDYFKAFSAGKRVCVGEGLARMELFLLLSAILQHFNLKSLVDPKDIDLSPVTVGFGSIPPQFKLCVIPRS
- runDescription: In-vitro screening of CYP2E1 inhibitors in rat liver microsomes (chlorzoxazone 6-hydroxylation)
- conditionParameters: rat, microsomes, 30 min, 33 μM, pH 7.4
Response body: numeric value in %, unit text excluded.

Answered cases to consult:
Which measured CYP 2E1 inhibition ratio value corresponds to CCCOC(=O)c1ccc(O)cc1 [Propylparaben] ? −17.2

What value of measured CYP 2E1 inhibition ratio is listed for O.OC[C@H]1O[C@@H](O[C@H]2[C@H](O)[C@@H](O)C(O)O[C@@H]2CO)[C@H](O)[C@@H](O)[C@H]1O (stereo partly drawn) [Lactose monohydrate] ? 7.8

// query CYP 2E1 inhibition ratio value for entry CCCCCCCCCCCCCCCCCCCCCC(=O)OCC(O)CO (stereo not drawn) [Glyceryl behenate] 3.1

What does the data say about its CYP 2E1 inhibition ratio? Entry: OC[C@@H](O)[C@@H](O)[C@H](O)[C@H](O)CO [Mannitol] 51.0

Query (molecule): OC[C@H]1O[C@H](O[C@]2(CCl)O[C@H](CCl)[C@@H](O)[C@@H]2O)[C@H](O)[C@@H](O)[C@H]1Cl [Sucralose] ; field requested: CYP 2E1 inhibition ratio 46.8

More entries:
Look at this molecule and give its reported CYP 2E1 inhibition ratio. COC(=O)c1ccc(O)cc1 [Methylparaben] −14.6
